# assayInfo: Stability in blood of living body: serum concentration after injection
# Assay type: in vivo, male Wistar rats
# conditionInfo: rat, iv, 2 hours after injection, caudal vein, Wistar rats, read-out: Concentration in the serum specimen
valueKind: concentration at 2 h (ng/mL)
Just the number please, in ng/mL, no unit attached.

Give a short answer stating reported concentration at 2 h for CO/N=C(\C(=O)N[C@@H]1C(=O)N2C(C(=O)O)=C(COC(C)=O)CS[C@H]12)c1csc(N)n1 [CEFOTAX ®, reference compound] . 2500

---

As shown below, each of these compounds has a reported LD50 at 168 h value.
# assayInfo: Acute mammalian toxicity (LD50, 7-day mortality)
# Assay type: in vivo
# conditionInfo: mouse, in vivo, ip; read-out: LD50 (intraperitoneous)

> print(dat)
                    compoundstructurestring        reading
1  CON=C(C(=O)N[C@@H]1C(=O)N2C(C(=O)O)=C(CSc3nnc(N)s3)CS[C@H]12)c1csc(N)n1  > 10000 mg/kg

# input for lookup
Give a short answer stating reported LD50 at 168 h for CON=C(C(=O)N[C@@H]1C(=O)N2C(C(=O)OCOC(=O)C(C)(C)C)=C(CSc3nnc(N)s3)CS[C@H]12)c1csc(N)n1 . > 10000 mg/kg

---

# assayInfo: Stability to rat liver homogenate (S-9 mix): rate of maintaining the antibacterial activity
# Assay type: in vitro ADME
# conditionInfo: rat, s9
valueKind: remaining at 20 min (%)
Just the number please, in %, no unit attached.

Give a short answer stating reported remaining at 20 min for CO/N=C(\C(=O)N[C@@H]1C(=O)N2C(C(=O)O)=C(COC(C)=O)CS[C@H]12)c1csc(N)n1 [CEFOTAX ®, reference compound] . 17
